- Test system: Kleb. pneumo. 4200
- assay.name: In vivo mouse protection (ED50)
- test.conditions: Mus musculus, po, Kleb. pneumo. 4200, p.o.
Let's look at some compounds and their measured ED50.
recorded.metric: ED50 (mg/kg)

compound="N[C@@H](C(=O)NC1C(=O)N2C(C(=O)O)=C(CSc3n[nH]c(CC(=O)O)n3)CS[C@H]12)c1ccc(O)cc1 (stereo partly shown) [VII]" inequality_operator== result=31
compound="O=C(O)Cc1nc(SCC2=C(C(=O)O)N3C(=O)C(NC(=O)[C@H](O)c4ccccc4)[C@H]3SC2)n[nH]1 (stereo partly shown) [IX]" inequality_operator== result=71
compound="O=C(O)C1=C(CSc2[nH]nnc2C(=O)O)CS[C@@H]2C(NC(=O)[C@H](O)c3ccccc3)C(=O)N12 (stereo partly shown) [VI]" inequality_operator=> result=200
compound="NC(=O)c1nn[nH]c1SCC1=C(C(=O)O)N2C(=O)C(NC(=O)[C@H](N)c3ccc(O)cc3)[C@H]2SC1 (stereo partly shown) [IV]" inequality_operator== result=8.2
compound="CCOC(=O)Cc1nc(SCC2=C(C(=O)O)N3C(=O)C(NC(=O)[C@H](N)c4ccccc4)[C@H]3SC2)n[nH]1 (stereo partly shown) [III]" inequality_operator== result=50
compound="N[C@@H](C(=O)NC1C(=O)N2C(C(=O)O)=C(CSc3[nH]nnc3C(=O)O)CS[C@H]12)c1ccccc1 (stereo partly shown) [V]" inequality_operator=> result=50
compound="N[C@@H](C(=O)NC1C(=O)N2C(C(=O)O)=C(CSc3n[nH]c(CC(=O)O)n3)CS[C@H]12)c1ccccc1 (stereo partly shown) [VIII]" inequality_operator== result=39
